method.notes: Inhibition of HCV BK NS5B polymerase after 15 mins
Set-up: species or system Hepatitis C virus (isolate BK)
pIC50: −log10 of the molar value.
Output condition met for pIC50 not less than 7; output condition not met otherwise.

compound: CCC[C@]1(CC(=O)O)OCCc2c1[nH]c1c(C)ccc(C#N)c21
group.label: condition not met

compound: CCCC1(CC(=O)O)OCCc2c1[nH]c1c(C)c(C(=O)NCc3ccc4c(c3)OCO4)cc(C#N)c21 (racemic)
group.label: condition not met

compound: CCCC1(CC(=O)O)OCCc2c1[nH]c1c(C)c(C(=O)NC)cc(C#N)c21 (racemic)
group.label: condition not met

compound: CCCC1(CC(=O)O)OCCc2c1[nH]c1c(C)c(OCc3ccccn3)cc(C#N)c21 (racemic)
group.label: condition met

compound: CCCC1(CC(=O)O)OCCc2c1[nH]c1c(C)c(O)cc(C#N)c21 (racemic)
group.label: condition not met

compound: CCCC1(CC(=O)O)OCCc2c1[nH]c1c(C)c(OCCOC)cc(C#N)c21 (racemic)
group.label: condition met

compound: CCCC1(CC(=O)O)OCCc2c1[nH]c1c(C)c(C(=O)N(C)C)cc(C#N)c21 (racemic)
group.label: condition not met

compound: CCC[C@]1(CC(=O)O)OCCc2c1[nH]c1c(C)c(OCc3cc(C)n(C)n3)cc(C#N)c21
group.label: condition met

compound: CCCNC(=O)c1cc(C#N)c2c3c([nH]c2c1C)C(CCC)(CC(=O)O)OCC3 (racemic)
group.label: condition not met

compound: CCCC1(CC(=O)O)OCCc2c1[nH]c1c(C)c(OC)cc(C#N)c21 (racemic)
group.label: condition not met

compound: CCC[C@]1(CC(=O)O)OCCc2c1[nH]c1c(C)c(OC[C@H](C)n3cccn3)cc(C#N)c21
group.label: condition met

compound: CCC[C@]1(CC(=O)O)OCCc2c1[nH]c1c(C)c(OC[C@@H](C)n3cccn3)cc(C#N)c21
group.label: condition met

compound: CC[C@H](C)[C@]1(CC(=O)O)OCCc2c1[nH]c1c(C)c(OC[C@H](C)n3cccn3)cc(C#N)c21
group.label: condition met

compound: CCC[C@]1(CC(=O)O)OCCc2c1[nH]c1c(C)c(OCCn3cccn3)cc(C#N)c21
group.label: condition met

compound: CCCC1(CC(=O)O)OCCc2c1[nH]c1c(C)c(OCCc3ccncc3)cc(C#N)c21 (racemic)
group.label: condition not met

compound: CC[C@H](C)[C@]1(CC(=O)O)OCCc2c1[nH]c1c(C)c(OCCn3cccn3)cc(C#N)c21
group.label: condition met

Numbers sourced from ChEMBL document CHEMBL1777733.
